# targetOrTestSystem: site-specifically biotinylated C3b (human, UniProt P01024 23-667; P01024 749-1663, site-specifically biotinylated with EZ-link Maleimide-PEG2-biotin)
# Sequence (P01024 23-667, chain 1 of 2): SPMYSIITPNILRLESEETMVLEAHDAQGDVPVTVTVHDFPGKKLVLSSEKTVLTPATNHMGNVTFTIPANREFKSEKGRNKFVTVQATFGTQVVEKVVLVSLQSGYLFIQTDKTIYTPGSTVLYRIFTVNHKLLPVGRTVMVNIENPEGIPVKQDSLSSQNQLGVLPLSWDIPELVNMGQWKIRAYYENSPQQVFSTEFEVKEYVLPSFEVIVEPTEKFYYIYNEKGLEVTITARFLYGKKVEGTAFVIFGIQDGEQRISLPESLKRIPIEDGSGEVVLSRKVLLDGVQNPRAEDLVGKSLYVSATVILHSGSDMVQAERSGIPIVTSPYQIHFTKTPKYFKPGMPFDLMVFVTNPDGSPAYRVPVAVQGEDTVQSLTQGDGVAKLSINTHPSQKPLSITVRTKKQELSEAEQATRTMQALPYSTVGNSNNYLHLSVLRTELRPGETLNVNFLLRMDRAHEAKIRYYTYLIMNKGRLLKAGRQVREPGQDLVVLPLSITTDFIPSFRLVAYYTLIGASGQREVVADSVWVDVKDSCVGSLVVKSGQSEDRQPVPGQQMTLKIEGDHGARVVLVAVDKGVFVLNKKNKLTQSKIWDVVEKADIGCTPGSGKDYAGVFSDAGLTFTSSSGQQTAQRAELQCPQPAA
# Sequence (P01024 749-1663, chain 2 of 2): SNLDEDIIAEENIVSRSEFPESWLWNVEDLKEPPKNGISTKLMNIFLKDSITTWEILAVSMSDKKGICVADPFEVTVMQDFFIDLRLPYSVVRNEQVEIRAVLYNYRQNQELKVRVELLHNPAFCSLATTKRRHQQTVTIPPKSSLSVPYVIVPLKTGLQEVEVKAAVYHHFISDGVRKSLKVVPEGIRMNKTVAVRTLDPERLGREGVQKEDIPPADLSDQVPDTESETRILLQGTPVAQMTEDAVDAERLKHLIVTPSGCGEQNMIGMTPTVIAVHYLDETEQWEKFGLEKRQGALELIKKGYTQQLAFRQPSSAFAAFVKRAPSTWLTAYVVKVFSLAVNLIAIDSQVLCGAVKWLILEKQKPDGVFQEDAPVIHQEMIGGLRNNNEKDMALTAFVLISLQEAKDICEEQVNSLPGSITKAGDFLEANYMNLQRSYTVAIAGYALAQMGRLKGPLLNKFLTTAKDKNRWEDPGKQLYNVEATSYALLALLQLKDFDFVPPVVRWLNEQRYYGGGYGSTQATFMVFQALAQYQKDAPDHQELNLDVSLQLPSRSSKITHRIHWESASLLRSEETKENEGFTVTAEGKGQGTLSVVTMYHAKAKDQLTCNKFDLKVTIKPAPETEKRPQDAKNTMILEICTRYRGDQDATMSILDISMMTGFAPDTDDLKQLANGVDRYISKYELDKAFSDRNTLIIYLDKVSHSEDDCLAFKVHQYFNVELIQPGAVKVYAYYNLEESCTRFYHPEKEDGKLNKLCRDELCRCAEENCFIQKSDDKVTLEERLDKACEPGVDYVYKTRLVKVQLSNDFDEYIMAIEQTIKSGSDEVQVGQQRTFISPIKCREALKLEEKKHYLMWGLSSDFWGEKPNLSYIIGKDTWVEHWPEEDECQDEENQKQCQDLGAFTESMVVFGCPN
# testSummary: SPR
measurementLabel: pKd
Give bare numbers, as −log10 of the molar value.

Recall and state the measured pKd for ENLYFQGGSGSGSGICVWQDWGAHRCT (designed binder, labeled with the dye reagent Episentec NHS-B23 (5-fold molar excess)) [B23 dye-labeled TRX-4W9A] .
6.10
